Cited source for all entries: paper PMC4554834

Biological target: UniProt O43613
Assay: Calcium mobilization Ke
Type: cell-based
Item-by-item account of Kb
reported metric: Kb

compound: CCOC(=O)C(C)Nc1ccc2c(c1)CCN(CC(=O)NCc1ccccc1)C2Cc1ccc(OC)c(OC)c1 (centres unmarked) [26b]
recorded value: > 10000 nM

compound: CCCCCCNc1ccc2c(c1)CCN(CC(=O)NCc1ccccc1)C2Cc1ccc(OC)c(OC)c1 (centres unmarked) [25t]
recorded value: > 10000 nM

compound: CCCN(CCC)c1ccc2c(c1)CCN(CC(=O)NCc1ccccc1)C2Cc1ccc(OC)c(OC)c1 (centres unmarked) [25d]
recorded value: 2350 nM

compound: COc1ccc(CC2c3ccc(NC(C)=O)cc3CCN2CC(=O)NCc2ccccc2)cc1OC (centres unmarked) [28a]
recorded value: > 10000 nM

compound: COc1ccc(CCNc2ccc3c(c2)CCN(CC(=O)NCc2ccccc2)C3Cc2ccc(OC)c(OC)c2)cc1OC (centres unmarked) [25j]
recorded value: 2180 nM

compound: CCOC(=O)CCCCCCNc1ccc2c(c1)CCN(CC(=O)NCc1ccccc1)C2Cc1ccc(OC)c(OC)c1 (centres unmarked) [26g]
recorded value: > 10000 nM

compound: CCCCCN(C)c1ccc2c(c1)CCN(CC(=O)NCc1ccccc1)C2Cc1ccc(OC)c(OC)c1 (centres unmarked) [25s]
recorded value: > 10000 nM

compound: CCCCCCN(C)c1ccc2c(c1)CCN(CC(=O)NCc1ccccc1)C2Cc1ccc(OC)c(OC)c1 (centres unmarked) [25u]
recorded value: > 10000 nM

compound: COc1ccc(CC2c3ccc(NCCCCOc4ccccc4)cc3CCN2CC(=O)NCc2ccccc2)cc1OC (centres unmarked) [25l]
recorded value: 2080 nM

compound: COc1ccc(CC2c3ccc(NCCCc4ccccc4)cc3CCN2CC(=O)NCc2ccccc2)cc1OC (centres unmarked) [25k]
recorded value: 1180 nM

compound: COc1ccc(CC2c3ccc(N4CCCCC4)cc3CCN2CC(=O)NCc2ccccc2)cc1OC (centres unmarked) [25q]
recorded value: > 10000 nM

compound: CCOC(=O)Nc1ccc2c(c1)CCN(CC(=O)NCc1ccccc1)C2Cc1ccc(OC)c(OC)c1 (centres unmarked) [23b]
recorded value: > 10000 nM

compound: COc1ccc(CC2c3ccc(OC(C)C)cc3CCN2CC(=O)NCc2ccccc2)cc1OC (centres unmarked) [17c]
recorded value: > 10000 nM

compound: CCOC(=O)CCCNc1ccc2c(c1)CCN(CC(=O)NCc1ccccc1)C2Cc1ccc(OC)c(OC)c1 (centres unmarked) [26d]
recorded value: 591 nM

compound: COc1ccc(CC2c3ccc(NCc4cccnc4)cc3CCN2CC(=O)NCc2ccccc2)cc1OC (centres unmarked) [25n]
recorded value: 1270 nM

compound: COC(=O)CCCCNc1ccc2c(c1)CCN(CC(=O)NCc1ccccc1)C2Cc1ccc(OC)c(OC)c1 (centres unmarked) [26f]
recorded value: 1600 nM

compound: CCCOc1ccc2c(c1)CCN(CC(=O)NCc1ccccc1)C2Cc1ccc(OC)c(OC)c1 (centres unmarked) [17a]
recorded value: > 10000 nM

----------
Target: human OX1 receptors (Homo sapiens, UniProt O43613)
Sequence (O43613 1-425): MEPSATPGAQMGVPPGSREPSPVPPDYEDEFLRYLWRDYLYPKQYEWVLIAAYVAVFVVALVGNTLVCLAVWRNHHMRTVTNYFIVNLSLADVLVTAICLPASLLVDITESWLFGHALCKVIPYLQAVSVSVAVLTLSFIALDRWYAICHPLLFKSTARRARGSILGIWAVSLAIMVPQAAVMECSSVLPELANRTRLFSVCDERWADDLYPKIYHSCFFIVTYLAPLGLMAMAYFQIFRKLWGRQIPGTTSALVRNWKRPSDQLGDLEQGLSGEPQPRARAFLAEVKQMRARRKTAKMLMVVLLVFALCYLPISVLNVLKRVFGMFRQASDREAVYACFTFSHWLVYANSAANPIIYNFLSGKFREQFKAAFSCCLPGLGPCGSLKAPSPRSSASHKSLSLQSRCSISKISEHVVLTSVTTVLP
Assay: Calcium mobilization Ke
Assay type: cell-based
Conditions: qualitative statement
reported metric: OX1 potency (in words)

compound: CCOC(=O)CCCNc1ccc2c(c1)CCN(CC(=O)NCc1ccccc1)C2Cc1ccc(OC)c(OC)c1 (stereo not drawn) [26d]
reported metric: OX1 potency (in words)
recorded value: some activity
//
compound: CCOC(=O)CCNc1ccc2c(c1)CCN(CC(=O)NCc1ccccc1)C2Cc1ccc(OC)c(OC)c1 (stereo not drawn) [26c]
reported metric: OX1 potency (in words)
recorded value: some activity
//
compound: COc1ccc(CC2c3ccc(NS(C)(=O)=O)cc3CCN2CC(=O)NCc2ccccc2)cc1OC (stereo not drawn) [compound 27]
reported metric: OX1 potency (in words)
recorded value: no significant potency
//
compound: COc1ccc(CC2c3ccc(NC(=O)Nc4ccccc4)cc3CCN2CC(=O)NCc2ccccc2)cc1OC (stereo not drawn) [28d]
reported metric: OX1 potency (in words)
recorded value: no significant potency
//
compound: CCOC(=O)CNc1ccc2c(c1)CCN(CC(=O)NCc1ccccc1)C2Cc1ccc(OC)c(OC)c1 (stereo not drawn) [26a]
reported metric: OX1 potency (in words)
recorded value: some activity
//
compound: CCCCCCNC(=O)Nc1ccc2c(c1)CCN(CC(=O)NCc1ccccc1)C2Cc1ccc(OC)c(OC)c1 (stereo not drawn) [28e]
reported metric: OX1 potency (in words)
recorded value: no significant potency

----------
Target: human OX1 receptors (Homo sapiens, UniProt O43613)
Test: Calcium mobilization Ke
Assay type: cell-based
Item-by-item account of log10 of Kb
reported metric: log10 of Kb (log10 of the value in nM)

compound: CCCCOc1ccc2c(c1)C(Cc1ccc(OC)c(OC)c1)N(CC(=O)NCc1ccccc1)CC2 (centres unmarked) [10e]
reported metric: log10 of Kb
recorded value: 2.36
--
compound: COc1ccc(CC2c3ccc(N(C)C)cc3CCN2CC(=O)NCc2ccccc2)cc1OC (centres unmarked) [25a]
reported metric: log10 of Kb
recorded value: 3.14
--
compound: COc1ccc(CC2c3ccc(N(C)CC4CC4)cc3CCN2CC(=O)NCc2ccccc2)cc1OC (centres unmarked) [25g]
reported metric: log10 of Kb
recorded value: 3.15
--
compound: CCOc1ccc2c(c1)C(Cc1ccc(OC)c(OC)c1)N(CC(=O)NCc1ccccc1)CC2 (centres unmarked) [10b]
reported metric: log10 of Kb
recorded value: 1.57
--
compound: CCOC(=O)CCCOc1ccc2c(c1)CCN(CC(=O)NCc1ccccc1)C2Cc1ccc(OC)c(OC)c1 (centres unmarked) [17e]
reported metric: log10 of Kb
recorded value: 3.00
--
compound: CCCN(C)c1ccc2c(c1)CCN(CC(=O)NCc1ccccc1)C2Cc1ccc(OC)c(OC)c1 (centres unmarked) [25c]
reported metric: log10 of Kb
recorded value: 2.79
--
compound: COc1ccc(CC2c3cc(OC(C)C)ccc3CCN2CC(=O)NCc2ccccc2)cc1OC (centres unmarked) [10d]
reported metric: log10 of Kb
recorded value: 1.70
--
compound: COc1ccc(CC2c3ccc(N4CCCC4)cc3CCN2CC(=O)NCc2ccccc2)cc1OC (centres unmarked) [25p]
reported metric: log10 of Kb
recorded value: 3.39

----------
Molecular target: human OX2 receptors (Homo sapiens, UniProt O43614)
Sequence (O43614 whole entry): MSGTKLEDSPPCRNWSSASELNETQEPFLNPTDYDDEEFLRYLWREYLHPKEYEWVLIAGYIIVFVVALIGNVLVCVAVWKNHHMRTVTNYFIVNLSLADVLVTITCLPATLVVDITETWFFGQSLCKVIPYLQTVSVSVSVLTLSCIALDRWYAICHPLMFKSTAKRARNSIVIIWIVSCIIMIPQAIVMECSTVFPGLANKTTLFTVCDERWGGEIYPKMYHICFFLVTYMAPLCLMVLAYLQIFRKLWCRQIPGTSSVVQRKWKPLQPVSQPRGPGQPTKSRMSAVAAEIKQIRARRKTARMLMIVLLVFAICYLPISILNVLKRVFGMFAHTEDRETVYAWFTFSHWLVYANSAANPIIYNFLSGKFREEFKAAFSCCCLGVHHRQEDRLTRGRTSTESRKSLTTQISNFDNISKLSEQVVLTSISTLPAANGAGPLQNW
Assay: Calcium mobilization Ke
Type: cell-based
reported metric: Kb (µM)

compound: CCCCCC(=O)Nc1ccc2c(c1)CCN(CC(=O)NCc1ccccc1)C2Cc1ccc(OC)c(OC)c1 (centres unmarked) [28b]
reported metric: Kb
value operator: >
recorded value: 10
//
compound: CCOC(=O)CCCNc1ccc2c(c1)CCN(CC(=O)NCc1ccccc1)C2Cc1ccc(OC)c(OC)c1 (centres unmarked) [26d]
reported metric: Kb
value operator: >
recorded value: 10
//
compound: CCOC(=O)Nc1ccc2c(c1)CCN(CC(=O)NCc1ccccc1)C2Cc1ccc(OC)c(OC)c1 (centres unmarked) [23b]
reported metric: Kb
value operator: >
recorded value: 10
//
compound: CCC(=O)Oc1ccc2c(c1)CCN(CC(=O)NCc1ccccc1)C2Cc1ccc(OC)c(OC)c1 (centres unmarked) [compound 19]
reported metric: Kb
value operator: =
recorded value: 1.29
//
compound: COc1ccc2c(c1)C(Cc1ccc(OC)c(OC)c1)N(CC(=O)NCc1ccccc1)CC2 (centres unmarked) [10a]
reported metric: Kb
value operator: =
recorded value: 1.68
//
compound: CCCOc1ccc2c(c1)C(Cc1ccc(OC)c(OC)c1)N(CC(=O)NCc1ccccc1)CC2 (centres unmarked) [10c]
reported metric: Kb
value operator: =
recorded value: 2.55
//
compound: COc1ccc(CC2c3ccc(OS(C)(=O)=O)cc3CCN2CC(=O)NCc2ccccc2)cc1OC (centres unmarked) [18a]
reported metric: Kb
value operator: =
recorded value: 1.33
//
compound: COC(=O)Nc1ccc2c(c1)CCN(CC(=O)NCc1ccccc1)C2Cc1ccc(OC)c(OC)c1 (centres unmarked) [23a]
reported metric: Kb
value operator: >
recorded value: 10
